system: Kochia (Kochia scoparia); experiment: Test A postemergence; type: in vivo; settings: Bassia scoparia, post-emergence, 240 h, 125 g ai/ha, postemergence; visual injury after approximately 10 d; 0 to 100 scale (0 no effect, 100 complete control); read-out: Plant response rating, Kochia
Excerpt: […]
# pest or weed control at 125 g/ha per record follows
Give your result in % as a bare value.

[ask] Specify pest or weed control at 125 g/ha for CC(F)(F)c1cccc([C@H]2CNC(=O)[C@@H]2C(=O)Nc2cccc(F)c2F)c1 [Compound 779] and stop.
[reply] 30

[ask] Specify pest or weed control at 125 g/ha for COc1cc([C@H]2CN(C)C(=O)[C@@H]2C(=O)Nc2ccccc2F)ccc1C(F)(F)F [Compound 768] and stop.
[reply] 0

[ask] Specify pest or weed control at 125 g/ha for CSc1ccccc1NC(=O)[C@H]1C(=O)N(C)C[C@@H]1c1cc(C)c(C)c(C)c1 [Compound 798] and stop.
[reply] 0

[ask] Specify pest or weed control at 125 g/ha for CSc1ccccc1NC(=O)[C@H]1C(=O)N(C)C[C@@H]1c1ccc(C)c(C)c1 [Compound 733] and stop.
[reply] 0

[ask] Specify pest or weed control at 125 g/ha for CSc1ccccc1NC(=O)[C@H]1C(=O)N(C)C[C@@H]1c1ccc(C(F)F)cc1 [Compound 799] and stop.
[reply] 30
